I'd appreciate it if you could supply IC50 values for the items below.
# targetSystem: AmpC (P99) (Enterobacter cloacae)
# Sequence (P05364 21-381): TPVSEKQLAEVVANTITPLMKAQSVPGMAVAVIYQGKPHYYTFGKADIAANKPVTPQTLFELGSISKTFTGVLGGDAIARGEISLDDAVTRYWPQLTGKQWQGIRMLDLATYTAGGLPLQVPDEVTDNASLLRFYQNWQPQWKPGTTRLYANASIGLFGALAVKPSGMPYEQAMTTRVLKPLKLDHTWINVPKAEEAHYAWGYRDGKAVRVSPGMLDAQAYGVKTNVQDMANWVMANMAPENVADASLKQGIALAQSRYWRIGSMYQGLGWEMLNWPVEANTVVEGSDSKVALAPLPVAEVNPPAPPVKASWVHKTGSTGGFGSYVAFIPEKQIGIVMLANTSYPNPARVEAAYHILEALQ
# experiment: β-lactamase inhibitory activity, determination of IC50 (nitrocefin hydrolysis)
Only the number, expressed in nM, is required.

// query Report IC50, nothing else, for this compound: O=C1N2CC=C(c3cncnc3)C(C2)N1OS(=O)(=O)[O-].[Na+] (stereo not drawn) [Example 10, sulfate]
// result 1100

// query Report IC50, nothing else, for this compound: Cn1cc(C2=CC3CN(C2)C(=O)N3OS(=O)(=O)[O-])ccc1=O.[Na+] (stereo not drawn) [Example 28, sulfate]
// result 77

// query Report IC50, nothing else, for this compound: O=C1N2CC=C(c3cnsc3)C(C2)N1OS(=O)(=O)[O-].[Na+] (stereo not drawn) [Example 29, sulfate]
// result 950

// query Report IC50, nothing else, for this compound: O=C1N2CC=C(c3cccnc3)C(C2)N1OS(=O)(=O)[O-].[Na+] (stereo not drawn) [Example 9]
// result 770

// query Report IC50, nothing else, for this compound: O=C1N2CC(c3cnco3)=CC(C2)N1OS(=O)(=O)[O-].[Na+] (stereo not drawn) [Example 35]
// result 51

// query Report IC50, nothing else, for this compound: O=C1N2CC=C(c3cn[nH]c3)C(C2)N1OS(=O)(=O)[O-].[Na+] (stereo not drawn) [Example 1, sulfate]
// result 6100

// query Report IC50, nothing else, for this compound: O=C1N2CC(c3nc4cccnc4s3)=CC(C2)N1OS(=O)(=O)[O-].[Na+] (stereo not drawn) [Example 40, sulfate]
// result 10

// query Report IC50, nothing else, for this compound: O=C1N2CC(c3cn[nH]c3)=CC(C2)N1OS(=O)(=O)[O-].[Na+] (stereo not drawn) [Example 43, sulfate]
// result 180

// query Report IC50, nothing else, for this compound: Cn1ccc(C2=CCN3CC2N(OS(=O)(=O)[O-])C3=O)cc1=O.[Na+] (stereo not drawn) [Example 13, sulfate]
// result 2800

// query Report IC50, nothing else, for this compound: O=C1N2CC(c3cnoc3)=CC(C2)N1OS(=O)(=O)[O-].[Na+] (stereo not drawn) [Example 26, sulfate]
// result 51

// query Report IC50, nothing else, for this compound: O=C1N2CC(c3ncon3)=CC(C2)N1OS(=O)(=O)[O-].[Na+] (stereo not drawn) [Example 36, sulfate]
// result 43

// query Report IC50, nothing else, for this compound: O=C1N2CC=C(c3cscn3)C(C2)N1OS(=O)(=O)[O-].[Na+] (stereo not drawn) [Example 31, sulfate]
// result 940

* * *

I'd appreciate it if you could supply pIC50 values for the items below.
# targetSystem: KPC-2 (Klebsiella pneumoniae, UniProt Q9F663)
# Construct: made in house; host or cells: E. coli
# Sequence (Q9F663 25-293 limits assumed): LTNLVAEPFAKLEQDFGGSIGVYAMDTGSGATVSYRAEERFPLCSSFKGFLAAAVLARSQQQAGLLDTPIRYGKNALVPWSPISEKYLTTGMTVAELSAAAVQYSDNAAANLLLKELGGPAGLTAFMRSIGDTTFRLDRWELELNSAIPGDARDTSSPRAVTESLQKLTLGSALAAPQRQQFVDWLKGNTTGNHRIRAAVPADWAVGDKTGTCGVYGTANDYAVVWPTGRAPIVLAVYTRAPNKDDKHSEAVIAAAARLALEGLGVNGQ
# experiment: β-lactamase inhibitory activity, determination of IC50 (nitrocefin hydrolysis)
# Type: biochemical
# runParameters: class (A); nitrocefin 200 μM, 30 min pre-incubation; read-out: IC50 β-lactamase KPC-2
Field pIC50 (float): negative decimal logarithm of the concentration in molar.

// query Name the recorded pIC50 of O=C1N2CC=C(c3ccns3)C(C2)N1OS(=O)(=O)[O-].[Na+] (stereo not shown) [Example 30, sulfate] , assay system KPC-2 (Klebsiella pneumoniae, UniProt Q9F663).
// result 7.20

// query Name the recorded pIC50 of O=C1N2CC=C(c3cnsc3)C(C2)N1OS(=O)(=O)[O-].[Na+] (stereo not shown) [Example 29, sulfate] , assay system KPC-2 (Klebsiella pneumoniae, UniProt Q9F663).
// result 6.82

// query Name the recorded pIC50 of Cn1cc(C2=CCN3CC2N(OS(=O)(=O)[O-])C3=O)c(=O)n(C)c1=O.[Na+] (stereo not shown) [Example 23, sulfate] , assay system KPC-2 (Klebsiella pneumoniae, UniProt Q9F663).
// result 7.01

// query Name the recorded pIC50 of Cn1cc(C2=CCN3CC2N(OS(=O)(=O)[O-])C3=O)cnc1=O.[Na+] (stereo not shown) [Example 15, sulfate] , assay system KPC-2 (Klebsiella pneumoniae, UniProt Q9F663).
// result 6.96
